In this section, each of the molecules is paired with its reported solubility.
experiment: Determination of solubility in water (PBS 20 mM, pH 6.8); format: physicochemical; details: PBS buffer, aqueous buffer, thermodynamic from solid; pH 6.8, 20 mM PBS; read-out: Solubility (pH 6.8, g/mL)

Completed entries (count: 3):
MOLECULE: COc1cc(N2CCN(C)CC2)ccc1Nc1ncc2ncc(=O)n(C3CCN(C(=O)/C=C/CN(C)C)CC3)c2n1
EXPERIMENTAL_RESULT: > 10 µg/mL

MOLECULE: C=CC(=O)Nc1cccc(-n2c(=O)c(C(C)C)nc3cnc(Nc4ccc(N5CCN(C)CC5)c(OC)c4)nc32)c1
EXPERIMENTAL_RESULT: < 10 µg/mL

MOLECULE: C=CC(=O)N1CCC(n2c(=O)c(-c3ccccc3)nc3cnc(Nc4ccc(N5CCN(C)CC5)c(C)c4)nc32)C1 (centres unmarked)
EXPERIMENTAL_RESULT: < 10 µg/mL

Enquiry: Name the reported solubility value associated with the molecule "C=CC(=O)N1CCC[C@H](Cn2c(=O)c(-c3ccccc3)nc3cnc(Nc4ccc(N5CCN(C)CC5)cc4OC)nc32)C1"
Return: < 10 µg/mL

Enquiry: What would you report for "Cc1cc(Nc2ncc3nc(C(C)C)c(=O)n([C@H]4CCN(C(=O)/C=C/CN(C)C)C4)c3n2)ccc1N1CCN(C)CC1" ?
Return: 737 µg/mL

Enquiry: What would you report for "C=CC(=O)Nc1cccc(-n2c(=O)c(-c3ccccc3)nc3cnc(Nc4ccc(N5CCN(C)CC5)cc4OC)nc32)c1" ?
Return: 9.7 µg/mL

Enquiry: What would you report for "C=CC(=O)Nc1cccc(-n2c(=O)c(-c3ccc(OC)cc3)nc3cnc(Nc4ccc(N5CCN(C)CC5)cc4OC)nc32)c1" ?
Return: < 10 µg/mL

Enquiry: What would you report for "C=CC(=O)Nc1cccc(-n2c(=O)cnc3cnc(Nc4ccc(N5CCN(C(C)=O)CC5)cc4OC)nc32)c1" ?
Return: < 25 µg/mL

* * *

experiment: Determination of solubility in water (PBS 20 mM, pH 6.8); type: physicochemical; details: PBS buffer, aqueous buffer, thermodynamic from solid; pH 6.8, 20 mM PBS; read-out: Solubility (pH 6.8, g/mL)
In this section, each of the compounds is paired with its reported solubility.

Completed entries (count: 5):
COMPOUND: C=CC(=O)N1CC[C@H](n2c(=O)c(-c3ccccc3)nc3cnc(Nc4ccc(N(C)CCN(C)C)c(C)c4)nc32)C1 [Compound 40]
EXPERIMENTAL_RESULT: > 10 µg/mL
//
COMPOUND: C=CC(=O)N1CCC[C@@H](n2c(=O)c(-c3ccccc3)nc3cnc(Nc4ccc(N5CCN(C)CC5)cc4OC)nc32)C1 [Compound 45]
EXPERIMENTAL_RESULT: < 10 µg/mL
//
COMPOUND: C=CC(=O)Nc1cccc(-n2c(=O)c(C3CCCCC3)nc3cnc(Nc4ccc(N5CCN(C)CC5)cc4OC)nc32)c1 [Compound 43]
EXPERIMENTAL_RESULT: < 10 µg/mL
//
COMPOUND: C=CC(=O)N1CC[C@H](n2c(=O)c(-c3ccccc3)nc3cnc(Nc4ccc(N(C)CCN(C)C)c(OC)c4)nc32)C1 [Compound 41]
EXPERIMENTAL_RESULT: > 10 µg/mL
//
COMPOUND: C=CC(=O)Nc1cccc(-n2c(=O)c(-c3ccccc3)nc3cnc(Nc4cc(C)c(N5CCN(C)CC5)cc4OC)nc32)c1 [Compound 38]
EXPERIMENTAL_RESULT: < 10 µg/mL

Proceed to the following item.
Enquiry: Name the reported solubility value associated with the compound C=CC(=O)Nc1cccc(-n2c(=O)c(-c3ccccc3)nc3cnc(Nc4ccc(N5CCC(N6CCN(C)CC6)CC5)cc4OC)nc32)c1 [Compound 48]
Return: < 10 µg/mL
